Can you tell me percent reduction in TR-FRET probe signal for the items I'm about to list?
system: AEK1 (Tb927.3.2440); assay: percent reduction in TR-FRET probe signal relative to DMSO control; higher = stronger displacement of ATP-site probe (binding); conditions: 1 µM; incubation time 1 h
Your answer is read as %, so omit the unit and give the number.

**Q:** Could you tell me which percent reduction in TR-FRET probe signal is on file for COc1cc2ncnc(Nc3ccc(Cl)cc3F)c2cc1OC ?
**A:** 4.47

**Q:** Next compound up: Cl.NC(=O)c1cnc(N[C@@H]2CCCC[C@@H]2N)nc1Nc1cccc(-n2nccn2)c1
**A:** -0.93

**Q:** Try CN1CCN(c2nc(C3=C(c4c[nH]c5ccccc45)C(=O)NC3=O)c3ccccc3n2)CC1 next.
**A:** -7.1

**Q:** Moving on to the next compound: Cc1[nH]c(/C=C2\C(=O)Nc3ccccc32)c(C)c1CCC(=O)O [TSU-68 (SU6668, Orantinib)]
**A:** 1.55

**Q:** Param item: Cc1csc(-c2nnc(Nc3ccc(Oc4ncccc4-c4ccnc(N)n4)cc3)c3ccccc23)c1
**A:** 55.7

**Q:** Thanks! And O=C(Nc1cc(C(F)(F)F)cc(C(F)(F)F)c1)c1cc(Cl)ccc1O ?
**A:** 8.68

**Q:** Then this compound: Cc1c(Cn2c(C)nc3c(C(=O)O)cc(N4CCOCC4)cc32)cccc1C(F)(F)F
**A:** 1.17

**Q:** Again, but for CS(=O)(=O)c1cccc(CNc2nc(Nc3ccc4c(c3)CCC(=O)N4)ncc2C(F)(F)F)c1
**A:** 39.5

**Q:** Follow-up entry: CC[C@H](CO)Nc1nc(NCc2ccccc2)c2ncn(C(C)C)c2n1 [Roscovitine (Seliciclib,CYC202)]
**A:** -4.47

**Q:** Please do the same for COc1cc2ncnc(Nc3cccc(Cl)c3F)c2cc1OC(=O)N1CCN(C)C[C@H]1C as well.
**A:** 9.77

**Q:** Now try Cc1[nH]c2ccccc2c1C1=C(NCCc2ccc(F)cc2)C(=O)N(C)C1=O .
**A:** 8.32

**Q:** Entry NC(=O)c1cccc(-c2cc(Nc3ccc(OC(F)(F)F)cc3)ncn2)c1 please
**A:** -4.38

**Q:** How about COc1cc2ncc(-c3ccccc3)nc2cc1OC ?
**A:** -3.11

**Q:** Now give it for Cc1ncc(-c2ccnc(Nc3ccc(S(C)(=O)=O)cc3)n2)n1C(C)C too.
**A:** -3.5

**Q:** Please do the same for CC(C)n1nc(-c2cc3cc(O)ccc3[nH]2)c2c(N)ncnc21 as well.
**A:** 5.23

**Q:** Now give it for CN1CC[C@H](c2c(O)cc(O)c3c(=O)cc(-c4ccccc4Cl)oc23)[C@H](O)C1 too.
**A:** -2.55

**Q:** Follow-up entry: Cc1n[nH]c2ccc(-c3cncc(OC[C@@H](N)Cc4ccccc4)c3)cc12
**A:** 14.1

**Q:** Continue with Oc1ccc2ccccc2c1SSc1c(O)ccc2ccccc12
**A:** -9.34

* * *

tested on: AEK1 (Tb927.3.2440); assay: percent reduction in TR-FRET probe signal relative to DMSO control; higher = stronger displacement of ATP-site probe (binding); conditions: 1 µM; incubation time 1 h
result-type: percent reduction in TR-FRET probe signal (%)
Write the number in % without appending the unit.

**Q:** What does the data say about its percent reduction in TR-FRET probe signal? Entry: C[C@@H](N)[C@H]1CC[C@H](C(=O)Nc2ccncc2)CC1.Cl.Cl
**A:** 2.66

**Q:** Ok, now CS(=O)(=O)O.O=C(Nc1cccc(Cl)c1)Nc1ncc(CCNc2ncnc3ccsc23)s1 [SNS-314 Mesylate]
**A:** 0.813

**Q:** What do we get for COc1cc2ncnc(Oc3ccc(CC(=O)Nc4cnn(C(C)C)c4)cc3)c2cc1OC ?
**A:** 5.15

**Q:** Please answer likewise for Cc1cc(Nc2ncc(Cl)c(Nc3ccccc3S(=O)(=O)C(C)C)n2)c(OC(C)C)cc1C1CCNCC1
**A:** -7.62

**Q:** Note, next up: CO[C@@H](C)Cn1c(=O)n(C)c2cnc3ccc(-c4cncc(C(C)(C)O)c4)cc3c21
**A:** 3.02
